Reference for the values: patent US20260014147A1

target: STAT6 (endogenous, HiBiT-tagged) in HeLa LgBiT clone 4.14 cells (Homo sapiens); construct: These cells express endogenous STAT6; host or cells: HeLa LgBiT clone 4.14; assay: STAT6 Degrader Assay (HiBiT based, HeLa LgBiT clone 4.14 cells, luminescence, DC50); assay type: cell-based; settings: Emax provided for test compounds with <80% Emax (and 2c15), geometric mean, read-out: STAT6 degradation Emax
property_label: Emax

Check out these entries, answers already filled in.
- compound: "C[C@@H](c1cc2c(-c3ccc(N)nc3)ccnc2n1C)N1CCC(c2ccc(C(=O)N3CCC(CN4CCN(c5ccc(NC6CCC(=O)NC6=O)c(F)n5)CC4)CC3)cc2)CC1 (stereo partly drawn)"
  Emax: "70 to 80%"
- compound: "Cn1c(CN2CCC(c3ccc(C(=O)N4CCC(CN5CCN(c6ccc(NC7CCC(=O)NC7=O)c(F)c6)CC5)CC4)cc3)CC2)cc2c(-c3ccc4[nH]ncc4c3)ccnc21 (stereo not drawn)"
  Emax: "70 to 80%"

Okay, next one:
# compound C[C@@H](c1cc2c(-c3ccc(N)nc3)ccnc2n1C)N1CCC(c2ccc(C(=O)N3CCC(CN4CCN(c5ncc(NC6CCC(=O)NC6=O)cc5F)CC4)CC3)cc2)CC1 (stereo partly drawn) ; its Emax = 70 to 80%

###

target: STAT6 (endogenous, HiBiT-tagged) in HeLa LgBiT clone 4.14 cells (Homo sapiens, UniProt P42226); construct: These cells express endogenous STAT6; host or cells: HeLa LgBiT clone 4.14; test: STAT6 Degrader Assay (HiBiT based, HeLa LgBiT clone 4.14 cells, luminescence, DC50); assay type: cell-based; details: DC50 provided for test compounds with >80% Emax, geometric mean, read-out: STAT6 degradation DC50
property_label: DC50 (nM)
Just the number please, in nM, no unit attached.

- molecule: "Cn1c(CN2CCC(c3ccc(C(=O)N4CCn5nc(CN6CCC(c7ccc(NC8CCC(=O)NC8=O)cc7F)CC6)cc5C4)cc3)CC2)cc2c(-c3ccc4[nH]ncc4c3)ccnc21 (stereo not shown)"
  DC50 [nM]: 2.7
- molecule: "C[C@@H]1CN(c2ccc(NC3CCC(=O)NC3=O)cc2F)CCN1CC1CCN(C(=O)c2ccc(C3CCN([C@@H](C)c4cc5c(-c6ccc(N)nc6)ccnc5n4C)CC3)cc2)CC1 (stereo partly shown)"
  DC50 [nM]: 6.8

# molecule COCc1nc2cc(-c3ccnc4c3cc([C@H](C)N3CCC(c5ccc(C(=O)N6CCC(CN7CCC(c8ccc(NC9CCC(=O)NC9=O)cc8F)C(F)(F)C7)CC6)cc5)CC3)n4C)ccc2[nH]1 (stereo partly shown) ; its DC50 = 23.5

# molecule C[C@@H](c1cc2c(-c3ccc(N)nc3)ccnc2n1C)N1CCC(c2ccc(C(=O)N3CCC(CN4CCN(c5ccc(NC6CCC(=O)NC6=O)cc5F)CC4C(F)(F)F)CC3)cc2)CC1 (mixture of isomers) ; its DC50 = 69.2

###

Emax listing for selected compounds.
Target: STAT6 (endogenous, HiBiT-tagged) in HeLa LgBiT clone 4.14 cells (Homo sapiens)
Construct: These cells express endogenous STAT6; host or cells: HeLa LgBiT clone 4.14
Sequence (P42226 1-847): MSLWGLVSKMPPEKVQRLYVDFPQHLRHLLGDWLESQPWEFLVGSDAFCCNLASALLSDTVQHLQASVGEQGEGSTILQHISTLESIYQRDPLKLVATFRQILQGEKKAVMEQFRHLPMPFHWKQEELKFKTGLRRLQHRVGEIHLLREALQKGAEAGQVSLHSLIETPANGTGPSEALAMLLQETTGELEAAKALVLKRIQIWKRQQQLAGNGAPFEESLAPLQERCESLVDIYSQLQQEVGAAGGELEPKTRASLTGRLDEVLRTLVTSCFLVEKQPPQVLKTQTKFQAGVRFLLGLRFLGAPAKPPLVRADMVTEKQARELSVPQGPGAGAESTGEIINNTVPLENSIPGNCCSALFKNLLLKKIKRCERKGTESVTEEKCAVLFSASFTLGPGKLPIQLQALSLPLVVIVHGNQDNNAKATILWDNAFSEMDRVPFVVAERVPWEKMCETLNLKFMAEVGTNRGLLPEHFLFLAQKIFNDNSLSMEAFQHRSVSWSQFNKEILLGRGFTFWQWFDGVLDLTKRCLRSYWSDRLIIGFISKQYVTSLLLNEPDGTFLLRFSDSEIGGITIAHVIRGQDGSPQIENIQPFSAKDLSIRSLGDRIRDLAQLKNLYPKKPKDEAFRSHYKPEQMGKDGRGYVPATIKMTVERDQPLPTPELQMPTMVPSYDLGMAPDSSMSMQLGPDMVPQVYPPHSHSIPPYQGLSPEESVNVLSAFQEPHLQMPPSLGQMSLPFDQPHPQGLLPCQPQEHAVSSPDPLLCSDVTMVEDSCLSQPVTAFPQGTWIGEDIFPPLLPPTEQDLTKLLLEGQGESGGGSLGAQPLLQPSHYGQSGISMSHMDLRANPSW
Assay: STAT6 Degrader Assay (HiBiT based, HeLa LgBiT clone 4.14 cells, luminescence, DC50)
Format: cell-based
Details: Emax provided for test compounds with <80% Emax (and 2c15), geometric mean, read-out: STAT6 degradation Emax

Check out these entries, answers already filled in.
- compound: "Cc1cc(C(=O)N2CCC(CN3CCN(c4ccc(NC5CCC(=O)NC5=O)cc4F)CC3)CC2)ccc1C1=CCN(Cc2cc3c(-c4ccc(N)nc4)ccnc3n2C)CC1 (stereo not drawn) [Example 2c9]"
  Emax: "50 to 60%"
- compound: "Cn1c(CN2CCC(c3ccc(C(=O)N4CCC(CN5CCN(c6ccc(NC7CCC(=O)NC7=O)cc6F)CC5)CC4)cc3)CC2)cc2c(-c3ccc4[nH]ncc4c3)ccnc21 (stereo not drawn) [Example 2c1]"
  Emax: "70 to 80%"
- compound: "Cn1c(CN2CCC(c3ccc(C(=O)N4CCC(CN5CCN(c6ccc(NC7CCC(=O)NC7=O)nc6)CC5)CC4)cc3)CC2)cc2c(-c3ccc4[nH]ncc4c3)ccnc21 (stereo not drawn) [Example 2t3]"
  Emax: "40 to 50%"

Okay, next one:
# compound Cn1c(CN2CCC(c3ccc(C(=O)N4CCC(CN5CCN(c6c(F)cc(NC7CCC(=O)NC7=O)cc6F)CC5)CC4)cc3)CC2)cc2c(-c3ccc4[nH]ncc4c3)ccnc21 (stereo not drawn) [Example 2c34] ; its Emax = 70 to 80%

###

Molecular target: STAT6 (endogenous, HiBiT-tagged) in HeLa LgBiT clone 4.14 cells (Homo sapiens, UniProt P42226)
Construct: These cells express endogenous STAT6; host or cells: HeLa LgBiT clone 4.14
Sequence (P42226 1-847): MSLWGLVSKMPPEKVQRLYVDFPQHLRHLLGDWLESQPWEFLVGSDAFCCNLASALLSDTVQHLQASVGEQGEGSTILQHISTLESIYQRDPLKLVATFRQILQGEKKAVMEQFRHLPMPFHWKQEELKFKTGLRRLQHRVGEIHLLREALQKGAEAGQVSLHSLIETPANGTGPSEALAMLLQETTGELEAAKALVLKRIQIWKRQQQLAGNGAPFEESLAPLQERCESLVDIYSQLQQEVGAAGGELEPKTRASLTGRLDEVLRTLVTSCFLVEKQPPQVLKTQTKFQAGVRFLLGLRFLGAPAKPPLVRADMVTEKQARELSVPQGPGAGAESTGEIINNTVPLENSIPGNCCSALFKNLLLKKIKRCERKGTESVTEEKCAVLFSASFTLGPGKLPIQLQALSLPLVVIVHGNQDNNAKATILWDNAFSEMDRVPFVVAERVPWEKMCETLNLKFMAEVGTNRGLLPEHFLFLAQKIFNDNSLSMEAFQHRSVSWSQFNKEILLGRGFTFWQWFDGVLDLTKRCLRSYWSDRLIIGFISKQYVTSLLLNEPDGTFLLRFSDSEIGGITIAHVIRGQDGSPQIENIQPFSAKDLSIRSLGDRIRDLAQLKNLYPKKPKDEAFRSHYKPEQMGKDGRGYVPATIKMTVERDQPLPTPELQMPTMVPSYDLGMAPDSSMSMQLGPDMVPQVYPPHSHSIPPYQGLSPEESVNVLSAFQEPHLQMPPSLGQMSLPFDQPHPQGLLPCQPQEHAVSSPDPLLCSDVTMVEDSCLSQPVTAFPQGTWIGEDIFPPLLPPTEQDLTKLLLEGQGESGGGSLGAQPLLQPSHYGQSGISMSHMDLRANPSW
Test: STAT6 Degrader Assay (HiBiT based, HeLa LgBiT clone 4.14 cells, luminescence, DC50)
Format: cell-based
Details: DC50 provided for test compounds with >80% Emax, geometric mean, read-out: STAT6 degradation DC50
property_label: DC50

Check out these entries, answers already filled in.
- molecule: "COCc1nc2cc(-c3ccnc4c3cc([C@H](C)N3CCC(c5ccc(C(=O)N6CCC(CN7CCN(c8ccc(N[C@@H]9CCC(=O)NC9=O)cc8F)CC7)CC6)cc5)CC3)n4C)ccc2[nH]1 (single isomer, unassigned)"
  DC50: "3.9 nM"
- molecule: "COCc1nc2cc(-c3ccnc4c3cc([C@H](C)N3CCC(c5ccc(C(=O)N6CCC(CN7CCN(c8ccc(N[C@@H]9CCC(=O)NC9=O)cc8F)C[C@H]7C)CC6)cc5)CC3)n4C)ccc2[nH]1 (single isomer, unassigned)"
  DC50: "2.5 nM"
- molecule: "C[C@@H](c1cc2c(-c3ccc(N)nc3)ccnc2n1C)N1CCC(c2ccc(C(=O)N3CCn4nc(CN5CCC(c6ccc(N[C@@H]7CCC(=O)NC7=O)cc6F)CC5)cc4C3)cc2)CC1 (single isomer, unassigned)"
  DC50: "1 nM"
- molecule: "Cn1c(CN2CCC(c3ccc(C(=O)N4CCC(CN5CCN(c6ccc(NC7CCC(=O)NC7=O)c(F)n6)CC5)CC4)cc3)CC2)cc2c(-c3ccc4[nH]ncc4c3)ccnc21 (stereo not shown)"
  DC50: "28.6 nM"
- molecule: "COCc1nc2cc(-c3ccnc4c3cc(CN3CCC(c5ccc(C(=O)N6CCC(CN7CCN(c8ccc(NC9CCC(=O)NC9=O)c(F)n8)CC7)CC6)cc5)CC3)n4C)ccc2[nH]1 (stereo not shown)"
  DC50: "19.8 nM"

# molecule C[C@@H](c1cc2c(-c3ccc4[nH]ncc4c3)ccnc2n1C)N1CCC(c2ccc(C(=O)N3CCC(CN4CCN(c5ccc(NC6CCC(=O)NC6=O)c(F)n5)CC4)CC3)cc2)CC1 (stereo partly shown) ; its DC50 = 18 nM

# molecule Cn1c(CN2CCC(c3ccc(C(=O)N4CCC(CN5CCN(c6ccc(NC7CCC(=O)NC7=O)cc6F)CC5)CC4)cc3)CC2)cc2c(-c3ccc4[nH]ncc4c3)ccnc21 (single isomer, unassigned) ; its DC50 = 22.5 nM
